Test system: wild-type ZIKV (Ugandan MR766 strain) in Vero cells
EXPERIMENT NOTES: ZIKV cytopathic effect (CPE) inhibition qHTS assay, CellTiter-Glo readout
Format: cell-based, Zika virus
REPORTED METRIC: Efficacy
Simply state the number, no unit and no words.

Past entries and their recorded results:
1. Cc1nc[nH]c1C1CCN(c2nc3cccc4c3n2CCC4=O)CC1 :: -41.62
2. COc1cc2c(cc1OC)[C@@H]1[C@H](O)[C@@H](OC)C=C3CCN(C2)[C@H]31 :: -55.9
3. C=C1C(=O)O[C@@H]2C[C@H](C)[C@@H]3CC(=O)C(C)=C3C[C@H]12 :: -111.978
4. CC1(C)CC[C@]2(C(=O)O)CC[C@]3(C)C(=CCC4[C@@]5(C)C[C@H](O)[C@H](O[C@@H]6OC[C@H](O)[C@H](O)[C@H]6O)[C@@](C)(CO)C5CC[C@]43C)[C@@H]2C1 (stereo partly drawn) :: -24.539
5. O=C(O)Cc1cc(I)c(Oc2ccc(O)c(I)c2)c(I)c1 :: -29.653
6. CCNC(=O)Nc1ccc(-c2nc3c(c(N4CCOC[C@@H]4C)n2)CCN(c2ncccn2)C3)cc1 :: -63.761
7. COc1cccc(C)c1C(=O)O[C@@H]1C[C@H](O[C@H]2[C@H](O)C[C@H](O[C@@H]3CCC[C@H]4[C@H]3C=C[C@@H]3CCCC/C=C/[C@H]5C=C(C(=O)O)[C@@H](C)C[C@@]56OC(=O)C(=C6O)OC(=O)[C@@]34C)O[C@@H]2C)O[C@H](C)[C@H]1O :: -37.18
8. CC(=O)OC[C@]12[C@H](OC(C)=O)C(=O)[C@@H]3[C@@H](O)[C@@]14O[C@@]3(C)COC(=O)c1cccnc1[C@@H](C)[C@H](C)C(=O)O[C@@H]([C@H](OC(C)=O)[C@@H]2OC(C)=O)[C@]4(C)O :: -97.679

Look up and state reported Efficacy for COc1cccc(-n2nc(C(=O)O)cc2-c2ccc(C3CCCCC3)c(Cl)c2)c1
-41.012

Look up and state reported Efficacy for Cc1cc(C)c(-c2csc(NC(=O)c3ccccc3)n2)c(C)c1
-75.252

Look up and state reported Efficacy for CC(=O)CC1CCC(C(C)C(=O)OCC(O)CO)O1 (stereo not drawn)
-53.159

Look up and state reported Efficacy for C[C@H]1O[C@@H](O[C@H]2[C@@H](O)C[C@H](O[C@H]3[C@@H](O)C[C@H](O[C@H]4CC[C@@]5(C)[C@H](CC[C@@H]6[C@@H]5C[C@@H](O)[C@]5(C)[C@@H](C7=CC(=O)OC7)CC[C@]65O)C4)O[C@@H]3C)O[C@@H]2C)C[C@H](O)[C@@H]1O
-19.155

---

System: wild-type ZIKV (Ugandan MR766 strain) in Vero cells
EXPERIMENT NOTES: ZIKV cytopathic effect (CPE) inhibition qHTS assay, CellTiter-Glo readout
Type: cell-based, Zika virus
REPORTED METRIC: Efficacy
Simply state the number, no unit and no words.

1) CC1(C)CC[C@]2(C(=O)O)CC[C@]3(C)C(=CCC4[C@@]5(C)CC[C@H](O[C@H]6O[C@H](C(=O)O)[C@@H](O)[C@H](O[C@@H]7O[C@H](CO)[C@H](O)[C@H](O)[C@H]7O)[C@H]6O)C(C)(C)C5CC[C@]43C)[C@@H]2C1 (stereo partly drawn) [NCGC00385211-01, Calenduloside G] :: -58.411

Look up and state reported Efficacy for CC1(C)CC[C@]2(C(=O)O)CC[C@]3(C)C(=CCC4[C@@]5(C)CC[C@H](O[C@@H]6O[C@H](C(=O)O)[C@@H](O[C@@H]7OC[C@@H](O)[C@H](O)[C@H]7O)[C@H](O)[C@H]6O)C(C)(C)C5CC[C@]43C)C2C1O (stereo partly drawn)
-39.908

Look up and state reported Efficacy for C=C1/C(=C/C=C2\CCC[C@]3(C)[C@@H]([C@H](C)/C=C/[C@@H](C)C(C)C)CC[C@@H]23)C[C@@H](O)C[C@@H]1O
-42.433

---

System: wild-type ZIKV (Ugandan MR766 strain) in Vero cells
EXPERIMENT NOTES: ZIKV cytopathic effect (CPE) inhibition qHTS assay, CellTiter-Glo readout
Type: cell-based, Zika virus
Below, each of the compounds is paired with its reported Efficacy value.
Simply state the number, no unit and no words.

Past entries and their recorded results:
1) CC(C)c1cccc2c(-c3ccccc3)cc(-c3ccc(-c4ccc(C(=O)O)cc4)[nH]3)nc12 :: -43.883
2) Cc1cc2sc(NC(=O)Cc3ccccc3)nc2cc1Cl :: -24.072
3) CC(C)(O)CCc1ccc(OCc2cc(-c3cccc(OC(F)F)c3)c3ncccc3c2)cc1 :: -26.837
4) CO[C@H]1/C=C/C=C/C=C/C[C@H](OC(=O)[C@@H](C)NC(=O)C2CCCCC2)[C@H](C)[C@@H](O)/C(C)=C\CCc2cc(O)cc(c2)NC(=O)C1 :: -73.026

Look up and state reported Efficacy for COC(=O)[C@@]1(C)C(=O)C=C[C@]2(C)c3c(O)cc(C(C)C)cc3[C@H](O)[C@@H](OC(C)=O)C12 (stereo partly drawn)
-68.661

Look up and state reported Efficacy for CC1(C)CC=C(c2cnc3ccccc3c2)c2cc(C(=O)Nc3ccc(C(=O)O)cc3)ccc21
-33.992

Look up and state reported Efficacy for CC(=O)O[C@@H]1C[C@]2(C)[C@@]3(CCC4[C@@]5(C)CC[C@H](O[C@@H]6O[C@H](C(=O)O)[C@@H](O)[C@H](OC7OC(CO)C(O)C(O)[C@H]7O[C@@H]7O[C@@H](C)[C@H](O)[C@@H](O)[C@H]7O[C@@H]7OC[C@](O)(CO)[C@H]7O)[C@H]6OC6OC(CO)C(O)C(O)C6O)C(C)(C)C5CC[C@]42C)OC[C@@]12CCC(C)(C)CC23 (stereo partly drawn)
-19.952

Look up and state reported Efficacy for C/C=C(\C)C(=O)O[C@H]1C=CC(=O)O[C@H]1/C=C/[C@@H](O)[C@H](C)O
-37.007

Look up and state reported Efficacy for CC1CCC2C(=CCC(O)C2(C)C)C1(C)Cc1c(O)cc(CO)c(C=O)c1O (stereo not drawn)
-71.029

---

System: wild-type ZIKV (Ugandan MR766 strain) in Vero cells
EXPERIMENT NOTES: ZIKV cytopathic effect (CPE) inhibition qHTS assay, CellTiter-Glo readout
Assay type: cell-based, Zika virus
Label label 0 if Efficacy falls below -30; label label 1 in every other case.

Solved entries (count: 5):
1) c1ccc(CNc2nc(N3CCOc4ccccc43)nc3c2CCCC3)cc1 :: label 0
2) CC(=O)OC[C@]12C[C@H](OC(=O)CC(C)C)C(C)=C[C@H]1O[C@@H]1[C@H](O)C[C@@]2(C)[C@]12CO2 :: label 0
3) CC1=CC(=O)[C@@H](O)[C@@]2(C)C1C[C@H]1OC(=O)[C@H](O)[C@@]3(O)[C@@H](C)[C@@H](O)[C@H](O)C2[C@@]13C (stereo partly shown) :: label 0
4) COc1ccc2c(OC)c3ccoc3nc2c1OC :: label 1
5) CC(=O)OC12C(O)C(C)C3(O)C4C=C(C)C(=O)C4CC(CO)=CC3C1C2(C)C (stereo not shown) :: label 0

Say whether CN(C)c1cccc(-c2c3c(=O)n(-c4ccccc4Cl)[nH]c3cc(=O)n2C)c1 shows Efficacy of -30 or more.
label 1

---

Test system: wild-type ZIKV (Ugandan MR766 strain) in Vero cells
EXPERIMENT NOTES: ZIKV cytopathic effect (CPE) inhibition qHTS assay, CellTiter-Glo readout
Format: cell-based, Zika virus
CONDITION INFO: Zika virus, Vero, read-out: Log AC50 (M) (converted)
REPORTED METRIC: AC50 (M)
Give the number; M is assumed, so skip it.

1. C=C(C)C(=O)O[C@H]1CC2=CC(C/C(C)=C/[C@H]3OC(=O)C(=C)[C@H]13)OC2=O (stereo partly shown) [NCGC00384526-01] :: 1.43e-05
2. CNC(=O)c1cc(Oc2ccc(NC(=O)Nc3cc(C(C)(C)C)nn3-c3ccc4ncccc4c3)c(F)c2)ccn1 [NCGC00263172-09] :: 2.91e-05

Give AC50 only, for CC1=CC[C@]2(C(=O)O[C@@H]3O[C@H](CO[C@@H]4O[C@H](CO)[C@@H](O[C@@H]5O[C@@H](C)[C@H](O)[C@@H](O)[C@H]5O)[C@H](O)[C@H]4O)[C@@H](O)[C@H](O)[C@H]3O)CC[C@]3(C)C(CCC4[C@@]5(C)C[C@@H](O)[C@H](O)[C@@](C)(CO)C5CC[C@]43C)C2C1C (stereo partly shown) [NCGC00381125-01] , using wild-type ZIKV (Ugandan MR766 strain) in Vero cells data.
6.18e-06

Give AC50 only, for CC(=O)O[C@H]1CC2C(COC(=O)CC(C)C)=CO[C@@H](OC(=O)CC(C)C)C2[C@]12CO2 (stereo partly shown) [NCGC00385012-01] , using wild-type ZIKV (Ugandan MR766 strain) in Vero cells data.
3.17e-05

Give AC50 only, for CC(C)C[C@H](CO)Nc1nc(S[C@@H](C)c2ccccc2)nc2nc(N)sc12 [NCGC00386735-01] , using wild-type ZIKV (Ugandan MR766 strain) in Vero cells data.
5.17e-05

Give AC50 only, for CCC(=C(c1ccc(OCCN2CCCC2)cc1)c1ccc(OCCN2CCCC2)cc1)c1ccccc1 [NCGC00408918-01] , using wild-type ZIKV (Ugandan MR766 strain) in Vero cells data.
5.8e-05

Give AC50 only, for O=C(c1cn(Cc2cncn2Cc2ccc(Br)cc2)cc1-c1cccc2ccccc12)N1CCOCC1 [NCGC00370772-05] , using wild-type ZIKV (Ugandan MR766 strain) in Vero cells data.
3.66e-05
